Listing: GI50 of selected compounds
- Test system: SK-MEL-5
- ASSAY EXPLANATION: NCI tumour cell line growth inhibition, 48 h
The source made the active and inactive calls. Rule as the data show it: active = GI50 up to about 1.1 µM and inactive = higher.

* COC(=O)c1ccc2n[se]nc2c1 | > 100 µM (inactive)
* C=C1c2nc3ccccc3n2C=C(c2ccc(Cl)cc2)N1c1ccc(OC)cc1 | 6.53 µM (inactive)

Task: Returns the measured GI50 for the input compound. Input: `CN[C@@H](C)[C@@H](NC)c1ccccc1`
Output: > 100 µM (inactive)

Task: Returns the measured GI50 for the input compound. Input: `O=C(CCCCCCCCC(=O)N1C(=O)CC(=O)N(c2ccc(Cl)cc2)C1=S)N1C(=O)CC(=O)N(c2ccc(Cl)cc2)C1=S`
Output: 29.9 µM (inactive)

Task: Returns the measured GI50 for the input compound. Input: `C#C[C@H](CCCC)OC(=O)N[C@H](C)c1ccccc1`
Output: 21.7 µM (inactive)
